Value source: patent US11224628B2

# Assay: Self-diffusion NMR (SD-NMR) diffusion coefficients of the components of the AX-loaded medium
# Assay type: physicochemical
# Condition Details: 0.5 wt % AX-loaded medium, water content 20 wt %
The reader will find reported Diffusion coefficient values listed item by item below.

Compound | Diffusion coefficient
C=C(C)[C@H]1CC=C(C)CC1 [R-(+)-limonene, R-(+)-Limonene] | 2.36 × 10^−11 m^2/sec
CC1=C(/C=C/C(C)=C/C=C/C(C)=C/C=C/C=C(C)/C=C/C=C(C)/C=C/C2=C(C)C(=O)[C@@H](O)CC2(C)C)C(C)(C)C[C@H](O)C1=O | 1.4 × 10^−12 m^2/sec
CCCCCCCC/C=C\CCCCCCCC(=O)OCCOCC(OCCO)C1OCC(OCCO)C1OCCO (stereo not drawn) [Tween 80, Polysorbate 80] | 2.9 × 10^−12 m^2/sec
CC(O)CO (stereo not drawn) | 4.86 × 10^−11 m^2/sec
CCO | 4.78 × 10^−11 m^2/sec
[2H]O[2H] | 2.84 × 10^−11 m^2/sec
